The values you see were collected from paper PMC9482650.

Target: SCRIB_2, Q14160
Sequence (Q14160 857-960): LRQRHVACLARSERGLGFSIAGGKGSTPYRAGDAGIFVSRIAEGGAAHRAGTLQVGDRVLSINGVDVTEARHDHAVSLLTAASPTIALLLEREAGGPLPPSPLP
Assay: holdup assay
Design: key: below the threshold = too weak to quantify, mostly under pKd 3.1 to 4
Conditions: plain residues with an end cap or a label only (N-terminal biotin on a linker: ado-ado)
PROPERTY: pKd

Field: example entries. Status: answers known.
- BINDER: "PRISRSQSEL [CCDC134, Q9H6E4]"
  PROPERTY: "pKd"
  VALUE REPORTED: "below the threshold"
- BINDER: "RRLPGKETMA [GRIK2, Q13002]"
  PROPERTY: "pKd"
  VALUE REPORTED: "below the threshold"
- BINDER: "AKPSRISTVV [IQSEC2, Q5JU85]"
  PROPERTY: "pKd"
  VALUE REPORTED: "below the threshold"
- BINDER: "VKPQVSESKL [ACOT8, O14734]"
  PROPERTY: "pKd"
  VALUE REPORTED: 3.52
- BINDER: "QMNQTLPVQV [EPHB3, P54753]"
  PROPERTY: "pKd"
  VALUE REPORTED: "below the threshold"
- BINDER: "LPHPHSTTRV [NLGN2, Q8NFZ4]"
  PROPERTY: "pKd"
  VALUE REPORTED: "below the threshold"
- BINDER: "ETQVTAETVI [TMEM225B, P0DP42]"
  PROPERTY: "pKd"
  VALUE REPORTED: "below the threshold"
- BINDER: "DDENIRTSDV [PLEKHA2, Q9HB19]"
  PROPERTY: "pKd"
  VALUE REPORTED: 3.75

Look up pKd: TSQESEDTYL [TBC1D10A, Q9BXI6]
below the threshold

Return reported pKd; argument: GQEEQVTTRL [TRPC5, Q9UL62]
below the threshold

Which pKd is reported for this binder? QHKTQLQTLI [BPIFA2, Q96DR5]
below the threshold

Query: pKd; subject: LPAHHNATRL [SLC34A1, Q06495;Q06495-1]
below the threshold

Reported pKd, binder RRISSLESEV [GRIN2C, Q14957] : ____
4.28

Find the recorded pKd belonging to SNAGNTATKA [NOSTRIN, Q8IVI9] and report it.
below the threshold

Which pKd is listed for QSPANIYYKV [EFNB1, P52799] ?
below the threshold

I'd like to know its pKd. The binder in question is EVNETDDTKM [KCNJ1, P48048]
3.83
